System: 415267-285-R-J2-PDC complex spheroid viability;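 also: luminescence used as stand-in measure of viable cells; spheroids exposed to compounds for one week before readout; 100% = DMSO vehicle control viability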
experiment.description: Anticancer human tumor 415267-285-R-J2-PDC patient-derived breast carcinoma cell line growth inhibition [POLQ]; active = viability on the fitted dose curve at most 10% of control; inactive = the rest
test.parameters: second compound 0.316 µM; first compound 1 µM
Could you please pick one outcome from this set? 1 = active, 0 = inactive

// known answers, use as guide
COc1ccc([C@@H](O)c2cc(-c3ncnc4cc(N5CCOCC5)ccc34)c(F)cc2Cl)nn1 + Cc1cccc(N(C)C(=O)C2C(O)CCN2c2nc(C)cc(C(F)(F)F)c2C#N)c1 : 0
CC1COCCN1c1cc(C2(S(C)(=N)=O)CC2)nc(-c2ccnc3[nH]ccc23)n1 (stereo not given) + Nc1ccc(C#CCN(C(=O)Cc2ncc(C(F)(F)F)cc2C(F)(F)F)c2ccc(F)cc2)nn1 : 0
CNCc1ccc(-c2[nH]c3cc(F)cc4c3c2CCNC4=O)cc1 + Nc1ccc(C#CCN(C(=O)Cc2ncc(C(F)(F)F)cc2C(F)(F)F)c2ccc(F)cc2)nn1 : 0
CC1COCCN1c1cc(C2(S(C)(=N)=O)CC2)nc(-c2ccnc3[nH]ccc23)n1 (stereo not given) + Cc1cccc(N(C)C(=O)C2C(O)CCN2c2nc(C)cc(C(F)(F)F)c2C#N)c1 : 0

Now consider a different molecule.
Q) I would be grateful if you could indicate the recorded call for CCc1c2c(nc3ccc(O)cc13)-c1cc3c(c(=O)n1C2)COC(=O)[C@]3(O)CC + COC1C(OC(N)=O)C(O)C(Oc2ccc3c(O)c(NC(=O)c4ccc(O)c(CC=C(C)C)c4)c(=O)oc3c2C)OC1(C)C .
A) 1
